Data credit: patent US11168093B2

# measurement_target: RIPK2 enzyme (Homo sapiens (Human), UniProt O43353)
# Sequence (O43353 whole entry): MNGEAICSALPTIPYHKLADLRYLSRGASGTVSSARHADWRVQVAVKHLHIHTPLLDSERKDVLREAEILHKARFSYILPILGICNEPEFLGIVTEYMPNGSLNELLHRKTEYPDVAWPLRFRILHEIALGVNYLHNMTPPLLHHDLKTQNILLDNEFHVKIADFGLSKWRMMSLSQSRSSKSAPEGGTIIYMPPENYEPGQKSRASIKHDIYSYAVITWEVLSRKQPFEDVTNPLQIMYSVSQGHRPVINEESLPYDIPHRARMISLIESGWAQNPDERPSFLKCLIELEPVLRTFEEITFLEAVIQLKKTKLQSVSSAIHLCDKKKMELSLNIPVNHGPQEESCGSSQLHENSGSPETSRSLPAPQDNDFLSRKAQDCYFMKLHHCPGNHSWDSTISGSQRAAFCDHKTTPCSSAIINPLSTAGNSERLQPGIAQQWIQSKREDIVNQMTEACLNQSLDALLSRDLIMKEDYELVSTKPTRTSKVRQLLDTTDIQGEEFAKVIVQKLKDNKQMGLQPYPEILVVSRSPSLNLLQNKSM
recorded_endpoint: IC50

Here are 7 compounds together with their reported answers.
COCC(=O)N1CCC=C(c2cc3c(Nc4ccc5scnc5c4)ccnc3s2)C1C (centres unmarked) ... ≤ 10 nM
CCN1CCC[C@H](c2cc3c(Nc4cc5ncsc5cc4F)ccnc3s2)[C@@H]1C [Example 54b] ... 20 to 50 nM
CC1C(c2cc3c(Nc4c(F)cc5scnc5c4F)ccnc3s2)CCN1CCO (centres unmarked) ... 10 to 20 nM
CC1C(c2cc3c(Nc4ccc5scnc5c4)c(F)cnc3s2)CCCN1C (single isomer, unassigned) [Example 120c] ... ≤ 10 nM
CCN1CCC=C(c2cc3c(Nc4c(F)cc5scnc5c4F)ccnc3s2)[C@H]1C [Example 72a] ... ≤ 10 nM
C[C@H]1NCCC=C1c1cc2c(Nc3cc4ncsc4cc3F)ccnc2s1 [Example 49a] ... 10 to 20 nM
CC1NCCCC1c1cc2c(Nc3ccc4scnc4c3F)c(F)cnc2s1 (single isomer, unassigned) [Example 124a] ... ≥ 50 nM

Now let's try a different one.
What reported IC50 corresponds to C[C@@H]1NCCC[C@H]1c1cc2c(Nc3c(F)cc4scnc4c3F)ccnc2s1 [Example 68a] on RIPK2 enzyme (Homo sapiens (Human), UniProt O43353)?
10 to 20 nM
